target: UniProtKB P53341; test: α-Glucosidase inhibition assay; type: biochemical
Sequence (P53341 whole entry): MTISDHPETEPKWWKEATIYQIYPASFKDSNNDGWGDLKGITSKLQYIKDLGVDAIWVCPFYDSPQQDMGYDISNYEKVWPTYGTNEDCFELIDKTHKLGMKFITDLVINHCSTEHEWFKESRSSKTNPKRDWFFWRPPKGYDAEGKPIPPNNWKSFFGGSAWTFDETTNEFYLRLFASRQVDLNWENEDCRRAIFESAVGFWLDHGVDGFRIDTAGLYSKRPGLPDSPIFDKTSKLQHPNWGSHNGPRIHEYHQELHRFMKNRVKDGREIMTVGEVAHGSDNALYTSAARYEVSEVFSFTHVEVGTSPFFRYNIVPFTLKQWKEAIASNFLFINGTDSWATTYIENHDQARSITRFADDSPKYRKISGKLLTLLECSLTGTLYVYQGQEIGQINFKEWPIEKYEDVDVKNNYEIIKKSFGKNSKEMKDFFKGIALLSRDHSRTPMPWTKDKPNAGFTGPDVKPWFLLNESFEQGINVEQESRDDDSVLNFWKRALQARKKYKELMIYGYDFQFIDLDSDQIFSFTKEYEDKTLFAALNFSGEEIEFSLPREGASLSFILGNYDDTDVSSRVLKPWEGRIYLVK
I'd be grateful if you could share measured IC50 for these entries.
One number for each entry, in µM.

Below are worked cases with known answers.
[[record]]
sample_smiles = "Nc1c(-c2ccccc2)nc2ncnn2c1-c1ccc(Br)cc1"
property_measured = "IC50"
numeric_readout = 65.1

[[record]]
sample_smiles = "Nc1c(-c2ccc(Cl)cc2)nc2ncnn2c1-c1ccc(Cl)cc1"
property_measured = "IC50"
numeric_readout = 24.3

[[record]]
sample_smiles = "Nc1c(-c2ccccc2)nc2ncnn2c1-c1ccccc1"
property_measured = "IC50"
numeric_readout = 97

[[record]]
sample_smiles = "COc1ccc(-c2nc3ncnn3c(-c3ccc(OC)cc3)c2N)cc1"
property_measured = "IC50"
numeric_readout = 52.7


Give IC50 for all molecules that follow.
1. Cc1ccc(-c2nc3ncnn3c(-c3ccccc3)c2N)cc1
2. COc1ccc(-c2nc3ncnn3c(-c3ccccc3)c2N)cc1
3. COc1ccc(-c2c(N)c(-c3ccc(Cl)cc3)nc3ncnn23)cc1
4. Nc1c(-c2ccccc2)nc2ncnn2c1-c1cccs1
5. COc1ccc(-c2c(N)c(-c3ccccc3)nc3ncnn23)cc1
6. COc1ccc(-c2nc3ncnn3c(-c3ccc(Cl)cc3)c2N)cc1

stdout:
94.5
72.4
41.5
140
70.9
37.2

Take each entry in turn and give its IC50.
1. Cc1ccc(-c2nc3ncnn3c(-c3cccs3)c2N)cc1
2. Nc1c(-c2ccc(Cl)cc2)nc2ncnn2c1-c1ccccc1
3. Nc1c(-c2ccccc2)nc2ncnn2c1-c1ccc(Cl)cc1

stdout:
151
58.1
56.2
